Assay: Ratio drug level in brain to plasma of transgenic 2576 mouse at 30 mg/kg, sc measured after 5 hrs
Assay type: ADME, organism-based
Design: dose 30 mg/kg, route subcutaneous
Details: read-out: BPR
endpoint-name: Kp at 5 h

>>> recorded_number("CCC(C)[C@@]1(NC(C)=O)CCN([C@@H](CCc2ccccc2)C(=O)N[C@@H](Cc2cc(F)cc(F)c2)[C@H](O)[C@H]2C[C@H](O)CN2)C1=O (stereo partly specified)")
0.87

---

Target: Beta-secretase 1 (Homo sapiens, UniProt P56817)
Sequence (P56817 whole entry): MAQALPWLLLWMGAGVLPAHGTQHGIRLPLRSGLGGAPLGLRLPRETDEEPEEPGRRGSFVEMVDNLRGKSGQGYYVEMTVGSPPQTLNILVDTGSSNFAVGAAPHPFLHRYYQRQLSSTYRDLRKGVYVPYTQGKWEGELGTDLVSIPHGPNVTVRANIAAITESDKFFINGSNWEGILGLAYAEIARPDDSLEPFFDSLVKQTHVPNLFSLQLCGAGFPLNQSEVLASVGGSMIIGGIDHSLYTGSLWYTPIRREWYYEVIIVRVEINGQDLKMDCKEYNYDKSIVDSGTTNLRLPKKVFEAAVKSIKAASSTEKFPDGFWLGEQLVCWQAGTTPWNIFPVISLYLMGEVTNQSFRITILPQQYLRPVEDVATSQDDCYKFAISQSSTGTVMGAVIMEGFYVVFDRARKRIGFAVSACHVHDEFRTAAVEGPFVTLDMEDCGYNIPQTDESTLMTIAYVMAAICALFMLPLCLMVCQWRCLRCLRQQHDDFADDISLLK
Test: Inhibition of BACE1 in human HEK293 cells expressing swedish mutant APP
Type: cell-based
endpoint-name: IC50 (nM)

>>> recorded_number("CCCO[C@H]1CN[C@@H]([C@@H](O)[C@H](Cc2cc(F)cc(F)c2)NC(=O)[C@H](C)N2CC[C@H](CC(C)C)C2=O)C1")
110
>>> recorded_number("CCC(C)[C@@]1(NC(C)=O)CCN([C@@H](CCc2ccccc2)C(=O)N[C@@H](Cc2cc(F)cc(F)c2)[C@H](O)[C@H]2C[C@@H](Oc3ccccc3)CN2)C1=O (stereo partly drawn)")
1.4
>>> recorded_number("CCC(C)[C@@]1(NC(C)=O)CCN([C@@H](CCc2ccccc2)C(=O)N[C@@H](Cc2cc(F)cc(F)c2)[C@H](O)[C@H]2Cc3ccccc3CN2)C1=O (stereo partly drawn)")
110
>>> recorded_number("CCC(C)[C@@]1(NC(C)=O)CCN([C@@H](CCc2ccccc2)C(=O)N[C@@H](Cc2cc(F)cc(F)c2)[C@H](O)[C@H]2C[C@@H](OCc3ccccc3)CN2)C1=O (stereo partly drawn)")
12
>>> recorded_number("CC(=O)N[C@]1(CC(C)C)CCN([C@@H](CCc2ccccc2)C(=O)N[C@@H](Cc2cc(F)cc(F)c2)[C@H](O)[C@H]2Cc3ccccc3CN2)C1=O")
9.5
>>> recorded_number("COc1cccc(CNC[C@@H](O)[C@H](Cc2cc(F)cc(F)c2)NC(=O)[C@H](CCc2ccccc2)N2CC[C@@](CC3CC3)(NC(C)=O)C2=O)c1")
10
>>> recorded_number("CCCO[C@H]1CN[C@@H]([C@@H](O)[C@H](Cc2cc(F)cc(F)c2)NC(=O)[C@H](CCc2ccccc2)N2CC[C@H](CC(C)C)C2=O)C1")
69
>>> recorded_number("CCC[C@@H](O)[C@H]1CCN([C@@H](CCc2ccccc2)C(=O)N[C@@H](Cc2cc(F)cc(F)c2)[C@H](O)[C@H]2C[C@H](O)CN2)C1=O")
220
>>> recorded_number("CCC(C)[C@@]1(NC(C)=O)CCN([C@@H](CCc2ccccc2)C(=O)N[C@@H](Cc2cc(F)cc(F)c2)[C@H](O)[C@H]2C[C@@H](OCc3ccccn3)CN2)C1=O (stereo partly drawn)")
1.3
>>> recorded_number("CCC(C)[C@@]1(NC(C)=O)CCN([C@@H](CCc2ccccc2)C(=O)N[C@@H](Cc2cc(F)cc(F)c2)[C@H](O)[C@H]2C[C@@H](OCc3cccc(C(F)(F)F)c3)CN2)C1=O (stereo partly drawn)")
71
>>> recorded_number("CCCC[C@H]1CCN([C@@H](CCc2ccccc2)C(=O)N[C@@H](Cc2cc(F)cc(F)c2)[C@H](O)[C@H]2C[C@@H](OCCC)CN2)C1=O")
84
>>> recorded_number("COc1cccc(CNC[C@@H](O)[C@H](Cc2cc(F)cc(F)c2)NC(=O)[C@H](C)N2CC[C@H](CC(C)C)C2=O)c1")
67
>>> recorded_number("CCCO[C@H]1CN[C@@H]([C@@H](O)[C@H](Cc2cc(F)cc(F)c2)NC(=O)[C@H](C)N2CC[C@H](C(C)C)C2=O)C1")
390
>>> recorded_number("CCCC[C@H]1CCN([C@@H](CCc2ccccc2)C(=O)N[C@@H](Cc2cc(F)cc(F)c2)[C@H](O)[C@H]2Cc3ccccc3CN2)C1=O")
1400
>>> recorded_number("CCC[C@@H](O)[C@H]1CCN([C@@H](CCc2ccccc2)C(=O)N[C@@H](Cc2cc(F)cc(F)c2)[C@H](O)CNCc2cccc(OC)c2)C1=O")
90
>>> recorded_number("CCC(C)[C@@]1(NC(C)=O)CCN([C@@H](CCc2ccccc2)C(=O)N[C@@H](Cc2cc(F)cc(F)c2)[C@H](O)[C@H]2C[C@@H](O)CN2)C1=O (stereo partly drawn)")
29
>>> recorded_number("CCCO[C@H]1CN[C@@H]([C@@H](O)[C@H](Cc2cc(F)cc(F)c2)NC(=O)[C@H](CCc2ccccc2)N2CC[C@H](C(C)C)C2=O)C1")
99
